Task for the reader: assign each of the following binders its reported pKd.
Target: T1, Human BCMA (human, UniProt Q02223 1-54, limits assumed)
T1 construct: also called huBCMA; B-cell maturation antigen
T1 sequence (looked up): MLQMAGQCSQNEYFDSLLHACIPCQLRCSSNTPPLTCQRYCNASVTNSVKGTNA
Assay: SPR, IgG immobilised, human BCMA analyte
Entry type: numeric. Quantity: pKd, the -log10 of concentration in molar units.

In: Which pKd value is on record for COMBO_Rd4_0.6nM_C09 (antibody, V domains shown, IgG) VH: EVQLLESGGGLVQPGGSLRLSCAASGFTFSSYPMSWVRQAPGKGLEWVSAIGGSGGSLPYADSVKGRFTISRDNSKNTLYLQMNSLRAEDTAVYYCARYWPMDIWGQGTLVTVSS VL: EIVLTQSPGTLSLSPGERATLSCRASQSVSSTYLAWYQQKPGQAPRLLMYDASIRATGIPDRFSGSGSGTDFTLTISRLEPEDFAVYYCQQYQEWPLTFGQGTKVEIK ?
Out: 10.51

In: Which pKd value is on record for A02_Rd4_0.6nM_C26 (antibody, V domains shown, IgG) VH: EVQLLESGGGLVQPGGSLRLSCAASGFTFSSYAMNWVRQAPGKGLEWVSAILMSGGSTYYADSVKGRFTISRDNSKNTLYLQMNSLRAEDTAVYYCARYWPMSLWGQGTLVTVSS VL: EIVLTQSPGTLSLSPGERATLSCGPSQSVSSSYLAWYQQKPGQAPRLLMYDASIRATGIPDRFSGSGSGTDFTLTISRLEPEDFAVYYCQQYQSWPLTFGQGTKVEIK ?
Out: 10.21

In: Which pKd value is on record for A02_Rd4_0.6nM_C09 (antibody, V domains shown, IgG) VH: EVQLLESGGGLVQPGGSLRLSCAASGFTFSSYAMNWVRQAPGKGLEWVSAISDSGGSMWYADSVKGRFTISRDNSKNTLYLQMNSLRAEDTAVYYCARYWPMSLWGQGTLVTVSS VL: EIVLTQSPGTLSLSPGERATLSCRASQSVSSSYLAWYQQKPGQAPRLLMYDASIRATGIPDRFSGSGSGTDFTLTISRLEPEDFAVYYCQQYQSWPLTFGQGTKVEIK ?
Out: 10.74

In: Which pKd value is on record for COMBO_Rd4_0.6nM_C05 (antibody, V domains shown, IgG) VH: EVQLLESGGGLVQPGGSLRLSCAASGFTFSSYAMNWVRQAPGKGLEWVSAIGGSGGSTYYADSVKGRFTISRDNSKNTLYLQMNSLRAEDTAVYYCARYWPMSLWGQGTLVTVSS VL: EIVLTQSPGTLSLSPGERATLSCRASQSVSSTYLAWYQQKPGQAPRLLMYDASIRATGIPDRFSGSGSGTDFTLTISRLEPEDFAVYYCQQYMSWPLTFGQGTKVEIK ?
Out: 9.94

In: Which pKd value is on record for COMBO_Rd4_6nM_C08 (antibody, V domains shown, IgG) VH: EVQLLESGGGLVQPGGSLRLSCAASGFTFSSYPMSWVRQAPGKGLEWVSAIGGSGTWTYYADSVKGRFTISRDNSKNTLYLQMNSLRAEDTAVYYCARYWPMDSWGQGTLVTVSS VL: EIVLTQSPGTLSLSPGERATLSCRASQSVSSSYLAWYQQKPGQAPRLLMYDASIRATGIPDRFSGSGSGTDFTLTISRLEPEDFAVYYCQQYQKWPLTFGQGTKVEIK ?
Out: 10.72

Values compiled from patent US20160297884A1.
